# Target System: Cytochrome P450 1A2 (Homo sapiens) (UniProt P05177)
# Sequence (P05177 whole entry, looked up): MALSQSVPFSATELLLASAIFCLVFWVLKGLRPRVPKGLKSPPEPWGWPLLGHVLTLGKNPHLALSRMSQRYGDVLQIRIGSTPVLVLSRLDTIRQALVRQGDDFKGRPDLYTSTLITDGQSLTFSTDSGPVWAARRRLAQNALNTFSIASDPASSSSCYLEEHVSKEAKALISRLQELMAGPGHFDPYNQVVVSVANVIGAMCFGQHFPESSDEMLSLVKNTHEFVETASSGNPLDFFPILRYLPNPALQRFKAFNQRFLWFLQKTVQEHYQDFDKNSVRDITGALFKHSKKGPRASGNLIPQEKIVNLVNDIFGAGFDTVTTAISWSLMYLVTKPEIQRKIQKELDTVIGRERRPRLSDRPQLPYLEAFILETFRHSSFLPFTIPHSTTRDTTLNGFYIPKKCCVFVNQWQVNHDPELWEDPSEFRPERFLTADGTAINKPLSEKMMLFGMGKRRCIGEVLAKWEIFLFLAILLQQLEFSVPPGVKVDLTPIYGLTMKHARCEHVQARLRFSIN
# Assay Name: Cytochrome panel assay with activity outcomes
# Study Conditions: recombinant CYP, pro-luciferin dealkylation, luminescence, p450-cyp1a2; series mostly up to 57.1 µM
Among all 16,000 compounds or so, about 5,700 (36%) were called active. Roughly 24% stayed inconclusive and do not appear here. Calls follow the shape of the dose curve; as a rule, active = well fitted curve in the direction sought with a large enough effect; inconclusive = small, poorly fitted or top-dose-only effect, or effect the other way; inactive = no such curve, though single readings can be large or run the other way. This is one part of the list.
Possible outcomes: 1 = active, -1 = inactive

{"columns": ["Compound", "Target System", "Group"],
 "data": [
  ["O=[N+]([O-])c1ccc(C=Nc2ccc(Cl)cc2Cl)s1", "Cytochrome P450 1A2 (Homo sapiens) (UniProt P05177)", 1],
  ["CC[n+]1c(P(=O)([O-])c2ccccc2)[nH]c2ccccc21", "Cytochrome P450 1A2 (Homo sapiens) (UniProt P05177)", -1],
  ["O=C(c1cc(C(F)(F)F)cc(C(F)(F)F)c1)N1CCC2(CC1)CN(c1ccccn1)C2", "Cytochrome P450 1A2 (Homo sapiens) (UniProt P05177)", -1],
  ["COc1ccc(OC)c2[nH]c(=O)c(CCNS(=O)(=O)c3ccc(Cl)cc3)cc12", "Cytochrome P450 1A2 (Homo sapiens) (UniProt P05177)", 1],
  ["CC(C)CC1NC(=S)N(C2CCCCC2)C1=O (stereo unspecified)", "Cytochrome P450 1A2 (Homo sapiens) (UniProt P05177)", -1],
  ["COc1ccc(OC)c2[nH]c(=O)c(CCNC(=O)c3ccc(S(=O)(=O)N(C)C)cc3)cc12", "Cytochrome P450 1A2 (Homo sapiens) (UniProt P05177)", -1]
]}

* * *

# Target System: Cytochrome P450 1A2 (Homo sapiens) (UniProt P05177)
# Assay Name: Cytochrome panel assay with activity outcomes
# Study Conditions: recombinant CYP, pro-luciferin dealkylation, luminescence, p450-cyp1a2; series mostly up to 57.1 µM
Screen size: about 16,000 compounds; about 5,700 (36%) were called active. Not shown: some 24% with an inconclusive outcome. Calls follow the shape of the dose curve; as a rule, active = well fitted curve in the direction sought with a large enough effect; inconclusive = small, poorly fitted or top-dose-only effect, or effect the other way; inactive = no such curve, though single readings can be large or run the other way. Some of the results follow.
Possible outcomes: Y (active), N (inactive)

{"columns": ["Compound Structure String", "Group"],
 "data": [
  ["Cc1ccccc1/C=C\\C1=NCCN1", "Y"],
  ["c1csc(CNc2ccnc(-c3ccc4c(c3)OCO4)n2)c1", "Y"],
  ["Cc1ccc(NCC(=O)N/N=C\\c2ccc([N+](=O)[O-])o2)cc1", "Y"],
  ["CO[C@]1(C2=NCCN2)COc2ccccc2O1", "N"],
  ["CCNc1ccc(Br)cc(C(=O)/C=C/c2ccc3c(c2)OCO3)c1=O", "Y"],
  ["COC(=O)c1nn(-c2ccccc2)c(-c2ccccc2)c1C(=O)c1ccccc1", "N"],
  ["O=C(CCc1nc(-c2ccccc2)c(-c2ccccc2)o1)OCc1ccc(Cl)cc1", "Y"],
  ["Cc1ccc(C(=O)N/N=C/c2ccc(S(=O)(=O)O)o2)c(Cl)c1", "N"],
  ["c1cncc(CNc2ccnc(-c3ccc4c(c3)OCO4)n2)c1", "Y"],
  ["NNc1nncc2ccccc12", "Y"],
  ["COc1ccc(C2=Nc3cccc4cccc(c34)N2)cc1", "Y"],
  ["CCOC(=O)N/N=C\\c1ccc([N+](=O)[O-])o1", "Y"]
]}

* * *

# Target System: Cytochrome P450 1A2 (Homo sapiens) (UniProt P05177)
# Assay Name: Cytochrome panel assay with activity outcomes
# Study Conditions: recombinant CYP, pro-luciferin dealkylation, luminescence, p450-cyp1a2; series mostly up to 57.1 µM
About 5,700 (36%) of roughly 16,000 compounds were called active. Inconclusive results (about 24%) are left out. Calls follow the shape of the dose curve; as a rule, active = well fitted curve in the direction sought with a large enough effect; inconclusive = small, poorly fitted or top-dose-only effect, or effect the other way; inactive = no such curve, though single readings can be large or run the other way. The list shows a part of the results.
Possible outcomes: active, inactive

{"columns": ["Molecule", "Group"],
 "data": [
  ["COC(=O)c1cc(OC)c(OC)cc1NC(=S)N1CCCCC1", "active"],
  ["Cc1ccc(-c2nnc(-c3ccccc3S(=O)(=O)Cc3ccc(Cl)cc3)o2)cc1", "inactive"],
  ["NC(=O)C1(N2CCCCC2)CCN(C(=S)Nc2ccc(Cl)cc2)CC1", "inactive"],
  ["CCC(C)[C@H](NC(=O)Nc1ccc(Oc2ccccc2)cc1)C(=O)O (stereo partly specified)", "inactive"],
  ["CCN(CC)c1nc(Nc2ccccc2)nc(Oc2ccc(C(=O)OC)cc2)n1", "active"],
  ["COC(=O)c1ccc(NC(=S)N2CCN(Cc3cccc(C)c3)CC2)cc1", "inactive"]
]}

// data source = PubChem BioAssay AID1851
